Biological target: T1, IFN-αF (human, UniProt P01568 24-189)
T1 construct: Recombinant, HEK293; also called IFN-α21
T1 chain: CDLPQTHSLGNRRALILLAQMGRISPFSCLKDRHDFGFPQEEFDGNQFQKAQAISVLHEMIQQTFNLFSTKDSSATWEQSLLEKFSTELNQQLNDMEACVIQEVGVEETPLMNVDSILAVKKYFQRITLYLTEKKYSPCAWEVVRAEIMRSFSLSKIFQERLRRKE
Test: ProteOn SPR, cell supernatant;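 further: each binding measurement used just a single antigen concentration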
Documented pKd across a set of binders
As a rule, pKd stands for the negative log10 of the concentration, concentration in M.

IFWM3410 (antibody, IgG1, V domains shown, mAb; IgG1/kappa said of the parent and of selected mAbs; also called IFWB3145) VH: EVQLVQSGAEVKKPGESLKISCKGSGYSFTSYWIGWVRQMPGKGLEWMGIIDPSDSDTRYSPSFQGQVTISADKSISTAYLQWSSLKASDTAMYYCARHPGLAWAPDFDYWGQGTLVTVSS VL: DIQMTQSPSSLSASVGDRVTITCRASQSIANTNLNWYQQKPGKAPKLLIHWASSLQSGVPSRFSGSGSGTDFTLTISSLQPEDFATYYCQQWYDNPLTFGQGTKVEIK	10.28

Here is another binder to look at.
I am curious: what pKd value has been reported for IFWM3405 (antibody, IgG1, V domains shown, mAb; IgG1/kappa said of the parent and of selected mAbs; also called IFWB3140) VH: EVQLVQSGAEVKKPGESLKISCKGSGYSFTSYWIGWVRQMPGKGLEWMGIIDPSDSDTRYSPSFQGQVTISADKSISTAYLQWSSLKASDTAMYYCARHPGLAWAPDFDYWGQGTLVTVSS VL: DIQMTQSPSSLSASVGDRVTITCRASQSIANNNLNWYQQKPGKAPKLLIHWASSLQSGVPSRFSGSGSGTDFTLTISSLQPEDFATYYCQQGYDTPFTFGQGTKVEIK ?
10.72
